All figures here come from patent US9988400B2.

# measured-target: HEK cells stably transfected with tetracycline inducible hNR1 and hNR2A (Homo sapiens, UniProt Q05586+Q12879)
# Construct: expressed in transfected cells; host or cells: HEK cells, stably transfected, tetracycline/doxycycline inducible
# Sequence (Q12879 23-1464, other chains not shown): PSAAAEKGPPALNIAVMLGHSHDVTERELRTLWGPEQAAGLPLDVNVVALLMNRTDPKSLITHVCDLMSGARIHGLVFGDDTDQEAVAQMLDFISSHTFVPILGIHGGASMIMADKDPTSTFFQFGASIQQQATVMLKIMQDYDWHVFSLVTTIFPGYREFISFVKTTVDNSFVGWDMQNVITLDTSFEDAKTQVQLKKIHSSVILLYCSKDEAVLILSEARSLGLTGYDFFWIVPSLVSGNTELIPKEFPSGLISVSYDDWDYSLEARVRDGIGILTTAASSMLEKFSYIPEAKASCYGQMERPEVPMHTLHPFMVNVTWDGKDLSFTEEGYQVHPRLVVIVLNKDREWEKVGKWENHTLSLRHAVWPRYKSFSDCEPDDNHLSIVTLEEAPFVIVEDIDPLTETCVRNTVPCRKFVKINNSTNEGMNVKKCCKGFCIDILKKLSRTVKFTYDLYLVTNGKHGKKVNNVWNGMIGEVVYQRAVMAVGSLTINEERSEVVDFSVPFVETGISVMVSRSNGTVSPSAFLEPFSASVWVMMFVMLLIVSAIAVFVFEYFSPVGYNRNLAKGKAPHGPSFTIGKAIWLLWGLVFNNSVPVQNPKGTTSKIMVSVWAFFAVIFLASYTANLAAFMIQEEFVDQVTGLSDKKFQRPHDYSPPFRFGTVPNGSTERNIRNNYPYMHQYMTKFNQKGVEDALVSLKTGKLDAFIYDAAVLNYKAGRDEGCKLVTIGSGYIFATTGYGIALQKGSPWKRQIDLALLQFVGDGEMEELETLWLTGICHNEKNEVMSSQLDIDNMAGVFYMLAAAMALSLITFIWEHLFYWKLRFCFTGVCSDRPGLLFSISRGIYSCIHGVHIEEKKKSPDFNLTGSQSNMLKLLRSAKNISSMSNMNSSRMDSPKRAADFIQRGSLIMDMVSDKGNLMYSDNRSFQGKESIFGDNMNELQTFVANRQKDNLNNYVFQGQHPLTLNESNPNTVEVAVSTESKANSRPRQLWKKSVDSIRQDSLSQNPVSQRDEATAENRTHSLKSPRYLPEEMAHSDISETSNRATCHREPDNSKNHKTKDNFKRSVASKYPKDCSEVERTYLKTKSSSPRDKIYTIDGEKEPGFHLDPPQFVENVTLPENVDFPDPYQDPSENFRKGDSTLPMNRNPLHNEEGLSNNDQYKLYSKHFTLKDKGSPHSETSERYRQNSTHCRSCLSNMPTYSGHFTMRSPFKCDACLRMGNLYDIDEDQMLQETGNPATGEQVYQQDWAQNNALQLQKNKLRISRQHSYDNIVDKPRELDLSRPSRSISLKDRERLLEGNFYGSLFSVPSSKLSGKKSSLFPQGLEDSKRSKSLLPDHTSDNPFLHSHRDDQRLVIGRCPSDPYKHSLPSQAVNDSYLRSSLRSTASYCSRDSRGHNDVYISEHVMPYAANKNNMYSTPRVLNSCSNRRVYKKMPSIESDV
# protocol-summary: Assay 1: Cell-Based Assay, cytosolic calcium response to positive allosteric modulators (with 30 μM glycine and 300 nM L-glutamate, EC30)
# measurement-context: Table 2; responses scaled relative to 100 μM L-glutamate maximal response (100%) and 0 μM L-glutamate (0%)
# Method: Assay 1: Cell-Based Assay HEK cells stably transfected with tetracycline inducible hNR1 and hNR2A were seeded into clear bottom 384 well poly-D-lysine coated plates (2.5×10^4 cells per well) in Minimum Essential Media (MEM; without L-) including 7.5 μg mL^−1 doxycycline and 500 μM (+)-ketamine. The cells were incubated at 37° C. in 5% CO2 for 24 h. […] Compounds were added after a 10 second baseline read and maximum level of relative fluorescence units (RFU) was measured over a 5 min period. […]
property-name: Max % (%)
Unit % implied. Number only.

Challenge: For Cc1sc2nc(Cn3nc(C(F)(F)F)cc3C(F)(F)F)cc(=O)n2c1[C@@H]1C[C@H]1CO (relative stereo) , what is its reported Max %?
Response given: 167

Challenge: For the molecule shown here, Cc1sc2nc(COc3ccc(F)cc3)cc(=O)n2c1C1CC1C(C)(C)O (centres unmarked) , give the reported Max %.
Response given: 49.2

Challenge: Which value of Max % has been reported for CCN(Cc1cc(=O)n2c(C(C)(C)O)csc2n1)c1ccc(F)cc1 in the records?
Response given: 165

Challenge: Consider the molecule CCN(Cc1cc(=O)n2c(C(O)CCO)c(C)sc2n1)c1ccc(F)cc1 (single isomer, unassigned) [Example 12.3] and give its measured Max %.
Response given: 183

Challenge: I would be grateful if you could share the reported Max % for Cc1sc2nc(CNc3ccc(F)cc3)cc(=O)n2c1-c1cncnc1 .
Response given: 87.9

Challenge: Given the molecule Cc1sc2nc(Cc3cccc(C#N)n3)cc(=O)n2c1C1CC1C#N (centres unmarked) , what is its reported Max %?
Response given: 133

Challenge: Consider the molecule CCN(Cc1cc(=O)n2c(N(C)C)c(C)sc2n1)c1ccc(F)cc1 and give its measured Max %.
Response given: 121

Challenge: Returns the measured Max % for the input molecule. Input: CCNC(=O)c1c(C)sc2nc(Cc3cc(F)ccc3F)cc(=O)n12
Response given: 54.5

Challenge: Returns the measured Max % for the input molecule. Input: CCc1sc2nc(CN(CC)c3ccc(F)cc3)cc(=O)n2c1-c1cncnc1
Response given: 157

Challenge: For CCN(Cc1cc(=O)n2c(CCOC)c(C)sc2n1)c1ccc(F)cc1 , what is its reported Max %?
Response given: 152

Challenge: Recorded Max % for CNC(=O)c1c(C)sc2nc(COc3ccc(F)c(F)c3)cc(=O)n12 , please?
Response given: 64

Challenge: Look at this molecule and give its reported Max %. CCN(Cc1cc(=O)n2c(-c3ccoc3)c(C)sc2n1)c1ccc(F)cc1
Response given: 158

Challenge: Return reported Max %; argument: CCN(Cc1cc(=O)n2c(CCC(C)(C)O)c(C)sc2n1)c1ccc(F)cc1
Response given: 166

Challenge: Would you mind telling me what Max % value was observed for CCN(Cc1cc(=O)n2c(C)c(C)sc2n1)c1ccc(F)cc1 ?
Response given: 135

Challenge: # lookup: Max % of CCNC(=O)c1c(C)sc2nc(Cc3ccc(F)c(C#N)c3)cc(=O)n12
Response given: 68.4

Challenge: Which value of Max % has been reported for Cc1sc2nc(COc3ccc(F)cc3)cc(=O)n2c1C(=O)NC(C)C in the records?
Response given: 44

Challenge: Endpoint output: Max % of Cc1sc2nc(CN(CCF)c3ccc(F)cc3)cc(=O)n2c1[C@@H]1C[C@H]1CO (single isomer, unassigned) . Value?
Response given: 145

Challenge: # get_value(readout='Max %', item= CCN(Cc1cc(=O)n2c(-c3cccnc3)c(C)sc2n1)c1ccc(F)cc1 )
Response given: 141

Challenge: If you can, please state the reported Max % value of CCN(Cc1cc(=O)n2c(CN3CCC34COC4)c(C)sc2n1)c1ccc(F)cc1 .
Response given: 117

Challenge: Entry under review: CCNC(=O)c1c(C)sc2nc(Cc3cccc(C#N)c3)cc(=O)n12 [Example 21.8] . Reported Max %?
Response given: 99.3

Challenge: // query Max % value for entry CCNC(=O)c1c(C)sc2nc(COc3ccc(F)cc3)cc(=O)n12
Response given: 59.5

Challenge: Any idea what its Max % is? The molecule is CCN(Cc1cc(=O)n2c3c(sc2n1)CCC3CC(N)=O)c1ccc(F)cc1 (centres unmarked)
Response given: 137

Challenge: Which Max % is reported for this molecule? Cc1sc2nc(COc3ccc(F)cc3)cc(=O)n2c1C(=O)C1CC1
Response given: 61.3
